Biological target: UniProt:Q9NYK1
Sequence (Q9NYK1 27-1049): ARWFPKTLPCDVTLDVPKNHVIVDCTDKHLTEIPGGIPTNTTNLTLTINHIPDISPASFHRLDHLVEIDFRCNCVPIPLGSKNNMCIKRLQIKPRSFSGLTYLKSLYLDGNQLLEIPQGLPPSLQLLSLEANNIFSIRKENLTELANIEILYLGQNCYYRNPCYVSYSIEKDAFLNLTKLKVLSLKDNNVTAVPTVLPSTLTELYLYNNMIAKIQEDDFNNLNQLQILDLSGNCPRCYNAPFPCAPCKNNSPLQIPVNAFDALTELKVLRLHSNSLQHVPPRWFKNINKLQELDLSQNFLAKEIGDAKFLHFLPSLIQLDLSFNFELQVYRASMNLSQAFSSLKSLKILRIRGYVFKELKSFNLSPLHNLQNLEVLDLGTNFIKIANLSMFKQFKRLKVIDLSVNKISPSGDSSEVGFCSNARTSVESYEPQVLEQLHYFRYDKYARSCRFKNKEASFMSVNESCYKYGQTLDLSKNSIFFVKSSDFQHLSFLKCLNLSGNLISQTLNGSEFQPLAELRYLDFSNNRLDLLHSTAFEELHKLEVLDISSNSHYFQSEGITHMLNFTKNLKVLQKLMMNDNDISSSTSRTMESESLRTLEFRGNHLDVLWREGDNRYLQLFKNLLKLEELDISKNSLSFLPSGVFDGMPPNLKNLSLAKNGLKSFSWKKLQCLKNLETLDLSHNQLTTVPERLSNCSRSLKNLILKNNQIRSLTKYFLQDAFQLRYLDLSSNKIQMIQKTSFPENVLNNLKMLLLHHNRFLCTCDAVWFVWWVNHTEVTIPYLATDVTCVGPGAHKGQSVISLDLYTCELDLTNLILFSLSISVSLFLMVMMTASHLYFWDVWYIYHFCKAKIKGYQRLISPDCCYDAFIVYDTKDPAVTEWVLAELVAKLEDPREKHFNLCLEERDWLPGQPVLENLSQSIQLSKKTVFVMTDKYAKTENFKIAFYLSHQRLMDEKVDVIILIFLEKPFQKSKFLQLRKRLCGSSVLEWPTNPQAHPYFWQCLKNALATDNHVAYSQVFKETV
Experiment: HEK293-Blue-hTLR-7 cells assay
Settings: HEK293-Blue-hTLR7 cells, R848 stimulation, 20 hrs, SEAP reporter; read-out: HEK/hTLR7 IC50
Overview of recorded IC50 for various molecules
Experimental endpoint: IC50 (nM)

                                   molecule  experimental_endpoint  unit_string  recorded_measurement
0  C[C@@H]1CN(c2ccc(C#N)c3ncccc23)C[C@@H]2C[C@@H](Oc3ccc(N4CCNCC4)nc3)CCN21                   IC50           nM                    35
1  C[C@@H]1CN(c2ccc(C#N)c3ncccc23)C[C@@H]2C[C@H](NCc3ccc(N4CCNCC4)cc3)CCN21                   IC50           nM                    33
2  C[C@@H]1CN(c2ccc(C#N)c3ncccc23)C[C@@H]2C[C@H](c3ccc(N4CCNCC4)nc3)CCN21 (stereo in doubt) [Example 2]                   IC50           nM                     4
